Experimental Target: TYK2 (Homo sapiens)
Sequence (P29597 whole entry): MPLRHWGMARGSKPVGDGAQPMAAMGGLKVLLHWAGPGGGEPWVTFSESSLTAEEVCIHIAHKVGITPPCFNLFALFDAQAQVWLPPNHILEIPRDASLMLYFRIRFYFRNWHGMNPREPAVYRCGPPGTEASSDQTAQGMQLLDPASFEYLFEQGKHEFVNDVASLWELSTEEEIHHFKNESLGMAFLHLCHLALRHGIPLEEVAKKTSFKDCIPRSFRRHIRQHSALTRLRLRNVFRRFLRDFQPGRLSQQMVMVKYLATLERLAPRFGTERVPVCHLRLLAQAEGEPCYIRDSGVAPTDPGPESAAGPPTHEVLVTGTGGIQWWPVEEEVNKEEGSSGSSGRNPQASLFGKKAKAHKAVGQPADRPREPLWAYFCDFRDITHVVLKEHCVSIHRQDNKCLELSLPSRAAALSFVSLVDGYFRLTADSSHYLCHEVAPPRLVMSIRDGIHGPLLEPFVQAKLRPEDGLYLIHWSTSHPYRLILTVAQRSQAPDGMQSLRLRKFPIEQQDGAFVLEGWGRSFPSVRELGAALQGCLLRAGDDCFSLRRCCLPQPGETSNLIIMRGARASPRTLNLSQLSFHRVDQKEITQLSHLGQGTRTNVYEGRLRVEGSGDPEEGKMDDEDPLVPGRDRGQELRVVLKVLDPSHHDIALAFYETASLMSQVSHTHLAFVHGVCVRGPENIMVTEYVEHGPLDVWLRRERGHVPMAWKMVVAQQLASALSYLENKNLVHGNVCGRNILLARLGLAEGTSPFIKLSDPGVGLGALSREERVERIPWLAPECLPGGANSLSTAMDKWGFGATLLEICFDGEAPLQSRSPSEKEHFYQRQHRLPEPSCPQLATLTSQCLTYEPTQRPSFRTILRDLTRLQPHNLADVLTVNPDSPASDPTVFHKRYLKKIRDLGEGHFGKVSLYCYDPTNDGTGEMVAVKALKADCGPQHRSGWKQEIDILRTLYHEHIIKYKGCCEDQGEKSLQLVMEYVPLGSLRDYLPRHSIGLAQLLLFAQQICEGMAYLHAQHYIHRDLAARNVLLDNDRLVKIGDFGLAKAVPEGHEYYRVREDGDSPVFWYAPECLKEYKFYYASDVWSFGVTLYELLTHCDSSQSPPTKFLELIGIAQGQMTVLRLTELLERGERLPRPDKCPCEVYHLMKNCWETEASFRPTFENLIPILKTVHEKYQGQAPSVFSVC
Assay Details: TYK2 degradation MSD assay in human PBMC cells
Assay type: cell-based
Design: endogenous in cells; host or cells: human PBMC
Cond: 4 to 24 hours incubation, read-out: TYK2 MSD DC50 rating in human PBMC
Outcome Measure: DC50

The following compounds have reported results that may help.
- Compound: "CNc1cc(N2CCc3c(-c4ccc(C(=O)N5CCC(CN6CCN(c7ccc(-c8ccc9c(c8)n(C)c(=O)n9C8CCC(=O)NC8=O)cc7)CC6)CC5)cn4)cccc32)nn2c(C(=O)N[C@@H]3C[C@@H]3F)cnc12 (some centres unmarked) [Example K627]"
  Outcome Measure: "DC50"
  Data Value: "> 100 nM"
- Compound: "CNc1cc(Nc2cccc(C(=O)NCCCCc3ccc4c(c3)n(C)c(=O)n4C3CCC(=O)NC3=O)c2)nn2c(C(=O)N[C@@H]3C[C@@H]3F)cnc12 (some centres unmarked) [Example K247]"
  Outcome Measure: "DC50"
  Data Value: "> 100 nM"
- Compound: "CNc1cc(Nc2cccn(C3CCN(C(=O)NCCCCc4ccc5c(c4)n(C)c(=O)n5C4CCC(=O)NC4=O)CC3)c2=O)nn2c(C(=O)N[C@@H]3C[C@@H]3F)cnc12 (some centres unmarked) [Example K277]"
  Outcome Measure: "DC50"
  Data Value: "1 to 10 nM"
- Compound: "CNc1cc(Nc2cccc(CN3CCC(c4ncc(-c5ccc6c(c5)n(C)c(=O)n6C5CCC(=O)NC5=O)cn4)CC3)c2)nn2c(C(=O)NC3CC3)cnc12 (centres unmarked) [Example K585]"
  Outcome Measure: "DC50"
  Data Value: "> 100 nM"
- Compound: "CNC(=O)c1cnc(Nc2ccc(C(=O)N(C)C3CCN(c4ccc5c(c4)n(C)c(=O)n5C4CCC(=O)NC4=O)CC3)cn2)cc1Nc1cccc(-c2ncc(F)cn2)c1OC (centres unmarked) [Example K178]"
  Outcome Measure: "DC50"
  Data Value: "< 1 nM"
- Compound: "CNC(=O)c1cnc2c(NC)cc(Nc3cccc(-c4ccc(CN5CCN(c6ccc(-c7ccc8c(c7)n(C)c(=O)n8C7CCC(=O)NC7=O)cc6)CC5)cn4)c3OC)nn12 (centres unmarked) [Example K527]"
  Outcome Measure: "DC50"
  Data Value: "> 100 nM"
- Compound: "CNc1cc(Nc2cccc(-c3ccc(CN4CCN(c5ccc(-c6ccc7c(c6)n(C)c(=O)n7C6CCC(=O)NC6=O)cc5)CC4)cn3)c2Cl)nn2c(C(=O)N[C@@H]3C[C@@H]3F)cnc12 (mixture of isomers) [Example K541]"
  Outcome Measure: "DC50"
  Data Value: "> 100 nM"
- Compound: "CNc1cc(-c2cnn(C3CN(C(=O)NCCCCCCCCc4ccc5c(c4)n(C)c(=O)n5C4CCC(=O)NC4=O)C3)c2)nn2c(C(=O)NC3C[C@@H]3F)cnc12 (some centres unmarked) [Example K318]"
  Outcome Measure: "DC50"
  Data Value: "> 100 nM"

Could I get DC50 for every one of these entries?
1. CNc1cc(Nc2cccn(-c3ccc(C(=O)NCCCCc4cccc5c4n(C)c(=O)n5C4CCC(=O)NC4=O)cn3)c2=O)nn2c(C(=O)N[C@@H]3C[C@@H]3F)cnc12 (some centres unmarked) [Example K259]
2. CNc1cc(Nc2cccn(-c3cccc(C(=O)NCCCCc4ccc5c(c4)n(C)c(=O)n5C4CCC(=O)NC4=O)c3)c2=O)nn2c(C(=O)N[C@@H]3C[C@@H]3F)cnc12 (some centres unmarked) [Example K219]

Given back:
1: > 100 nM; 2: 1 to 10 nM

Values were extracted from patent US20250051338A1.
